Hey, just so you know, these numbers are from patent US11285135B2.

- TARGET UNDER TEST: GDP-bound protein (aa 1-169), containing both G12C and C118A amino acid substitutions (Homo sapiens, UniProt P01116, C118A/G12C)
- Sequence (P01116 1-169 isoform P01116-2 G12C/C118A): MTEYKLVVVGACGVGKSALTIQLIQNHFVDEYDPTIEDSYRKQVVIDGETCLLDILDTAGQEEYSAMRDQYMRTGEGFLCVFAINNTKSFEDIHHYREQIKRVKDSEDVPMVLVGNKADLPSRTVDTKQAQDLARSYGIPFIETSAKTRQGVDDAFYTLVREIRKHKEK
- EXPERIMENT SUMMARY: Coupled Nucleotide Exchange Assay (SOS-mediated nucleotide exchange, AlphaScreen)
- Type: biochemical
- RUN CONDITIONS: 2 hours compound pre-incubation
MEASUREMENT NAME: Coupled exchange IC50 (µM)

| MOLECULE | RESULT VALUE |
| --- | --- |
| C=CC(=O)N1CC(N(C)c2snc3c(F)c(-c4cc(O)cc5ccccc45)c(Cl)cc23)C1 | 0.139 |

P = C=C(CO)C(=O)N1CCN(c2snc3c(F)c(-c4cc(OC)cc5ccccc45)c(Cl)cc23)CC1
Q = C=CC(=O)N1CCN(c2snc3nc(-c4cc(O)cc5ccccc45)c(Cl)cc23)C(C)C1 (single isomer, unassigned) [Example 2-5-1]
Query: Which of these two has the smaller recorded Coupled exchange IC50: P or Q ? Refer to your chosen item by its label in the answer.
Reply: Q

* * *

- TARGET UNDER TEST: GDP-bound protein (aa 1-169), containing both G12C and C118A amino acid substitutions (Homo sapiens, UniProt P01116, C118A/G12C)
- EXPERIMENT SUMMARY: Coupled Nucleotide Exchange Assay (SOS-mediated nucleotide exchange, AlphaScreen)
- Format: biochemical
- RUN CONDITIONS: 2 hours compound pre-incubation
MEASUREMENT NAME: Coupled exchange IC50 (µM)

| MOLECULE | Coupled exchange IC50, µM |
| --- | --- |
| C=CC(=O)N1CCN(c2snc3c(F)c(-c4cc(O)cc5ccccc45)c(Cl)cc23)CC1 (single isomer, unassigned) [Example 3-1-2] | 0.302 |
| C=CC(=O)N1CCN(c2snc3c(F)c(-c4cc(O)cc5ccccc45)c(Cl)cc23)CC1 [Example 3-1] | 0.266 |

I = C=CC(=O)N1CCN(c2nnc(Cl)c3cc(-c4c(O)cccc4F)c(Cl)cc23)CC1 [Example 10-13]
II = C=CC(=O)N1CCN(c2snc3c(F)c(-c4cc(N)cc(F)c4F)c(Cl)cc23)CC1 [Example 3-15]
III = C=CC(=O)N1CCN(c2nnc(Cc3ccccc3)c3cc(Cl)c(Cl)cc23)CC1 [Example 34]
IV = C=CC(=O)N1CCN(c2snc3nc(-c4cc(O)cc5ccccc45)c(Cl)cc23)C(C)C1 (racemic) [Example 2-5]
Query: Highest Coupled exchange IC50 first, then in falling order down to the smallest. Return value: ordered labels per request.
Reply: III, I, II, IV
(III: 34.2 µM, I: 15.1 µM, II: 4.03 µM, IV: 0.684 µM)

* * *

- TARGET UNDER TEST: GDP-bound protein (aa 1-169), containing both G12C and C118A amino acid substitutions (Homo sapiens, UniProt P01116, C118A/G12C)
- EXPERIMENT SUMMARY: Coupled Nucleotide Exchange Assay (SOS-mediated nucleotide exchange, AlphaScreen)
- Assay type: biochemical
- RUN CONDITIONS: 2 hours compound pre-incubation
MEASUREMENT NAME: Coupled exchange IC50 (µM)

Worked examples, 8 compounds total:
| COMPOUND | Coupled exchange IC50, µM |
| --- | --- |
| C=CC(=O)N1CCN(c2snc3c(F)c(-c4c(C)ccc5[nH]ncc45)c(Cl)cc23)[C@H](C(F)F)C1 (racemic) | 0.361 |
| C=CC(=O)N1CC[C@H]2[C@@H]1CN2c1snc2c(F)c(-c3cc(O)cc4ccccc34)c(Cl)cc12 | 0.883 |
| C=CC(=O)N1CC2(C1)CN(c1snc3c(F)c(-c4cc(O)cc5ccccc45)c(Cl)cc13)C2 | 0.529 |
| C=CC(=O)N1CCN(c2nc(=O)n(-c3ccccc3C(C)C)c3cc(-c4c(C)ccc5[nH]ncc45)c(Cl)cc23)[C@@H](C)C1 (single isomer, unassigned) [Example 11-2-1] | 0.219 |
| C=CC(=O)N1CCN(c2snc3c(F)c(-c4nc(N)ccc4Cl)c(Cl)cc23)CC1 | 0.537 |
| C=CC(=O)N1CCN(c2snc3c(F)c(-c4cccc5cccnc45)c(Cl)cc23)CC1 | 9.07 |
| C=CC(=O)N1CCN(c2nc(=O)n(-c3c(CC)cccc3CC)c3nc(-n4nnc5ccccc54)c(Cl)cc23)[C@@H](C)C1 | 1.32 |
| C=CC(=O)N1CCN(c2nc(=O)n(-c3ccccc3C(C)C)c3cc(-c4c(C)ccc5[nH]ncc45)c(Cl)cc23)[C@@H](C)C1 (single isomer, unassigned) [Example 11-2-2] | 0.256 |

a = C=CC(=O)N[C@@H]1CN(c2snc3c(F)c(-c4cc(O)cc5ccccc45)c(Cl)cc23)[C@@H]1C (racemic)
b = C=CC(=O)N1CCN(c2snc3nc(-c4cc(O)cc5ccccc45)c(Cl)cc23)C(C)C1 (single isomer, unassigned) [Example 2-5-2]
c = C=CC(=O)N1CCN(c2nc(=O)n(CC3CC3)c3nc(-c4c(O)cccc4F)c(Cl)cc23)CC1
d = COc1cc(-c2c(Cl)cc3c(N4CCN(C(=O)/C=C/CN(C)C)CC4)snc3c2F)c2ccccc2c1
e = C=CC(=O)N1CCN(c2snc3c(F)c(-c4nc(N)cc5ccccc45)c(Cl)cc23)CC1
Query: Order these by Coupled exchange IC50, descending, and give the full ranking. Would you mind listing the labels in the order asked for?
Reply: d, a, b, c, e

* * *

- Test system: Phosphorylation of ERK½ in A549 cells
- EXPERIMENT SUMMARY: Phospho-ERK½ MSD Assay in A549 cells
- Type: cell-based
- RUN CONDITIONS: Homo sapiens, A549, A549 cells; 4 hours compound treatment; 10 ng/mL EGF for 10 min; read-out: p-ERK IC50 (A549)
pIC50: −log10 of the molar value.
MEASUREMENT NAME: pIC50

Reference set (2 entries):
| MOLECULE | TARGET UNDER TEST | pIC50 |
| --- | --- | --- |
| C=CC(=O)N1CCN(c2snc3nc(-c4c(C)ccc5[nH]ncc45)c(Cl)cc23)C(C)C1 (racemic) [Example 2-6] | Phosphorylation of ERK½ in A549 cells | 5.43 |
| C=CC(=O)N1CCN(c2nc(=O)n(-c3ccccc3C(C)C)c3cc(-c4c(C)ccc5[nH]ncc45)c(Cl)cc23)CC1 (single isomer, unassigned) [Example 11-1-1] | Phosphorylation of ERK½ in A549 cells | 4.37 |

a = C=CC(=O)N1CCN(c2nc(=O)n(-c3ccncc3C3CC3)c3cc(-c4c(C)ccc5[nH]ncc45)c(Cl)cc23)[C@@H](C)C1 [Example 9-9]
b = C=CC(=O)N1CCN(c2nnc(Oc3ccccc3)c3cc(-c4c(O)cccc4F)c(Cl)cc23)CC1 [Example 16]
Query: Identify the item whose pIC50 is the smaller number: a or b Respond using the label that marks the chosen record.
Reply: a
(a: 4.18, b: 4.48)

* * *

- TARGET UNDER TEST: GDP-bound protein (aa 1-169), containing both G12C and C118A amino acid substitutions (Homo sapiens, UniProt P01116, C118A/G12C)
- EXPERIMENT SUMMARY: Coupled Nucleotide Exchange Assay (SOS-mediated nucleotide exchange, AlphaScreen)
- Type: biochemical
- RUN CONDITIONS: 2 hours compound pre-incubation
MEASUREMENT NAME: Coupled exchange IC50 (µM)

Below: 2 molecules and their reported Coupled exchange IC50.
| MOLECULE | Coupled exchange IC50 / µM |
| --- | --- |
| C=CC(=O)N1CCN(c2snc3cc(-c4c(F)cccc4OC)c(Cl)cc23)CC1 | 6.66 |
| C=CC(=O)N1CCN(c2nc(=O)n(-c3ccccc3C(C)C)c3nc(-c4c(O)cccc4F)c(Cl)cc23)[C@@H](C)C1 (single isomer, unassigned) [Example 8-6-2] | 0.185 |

A = C=CC(=O)N1CC[C@@H]2[C@H]1CN2c1snc2c(F)c(-c3cc(O)cc4ccccc34)c(Cl)cc12
B = C=CC(=O)N1CCN(c2snc3c(F)c(-c4cc(O)cc5ccccc45)c(Cl)cc23)[C@H](CC)C1 (racemic)
C = C=CC(=O)N1CCN(c2snc3c(F)c(-c4cc(O)cc5ccccc45)c(Cl)cc23)C(C(=O)OC)C1 (racemic)
Query: // smallest Coupled exchange IC50 at index 0, largest at the end Output spec: labels arranged per the requested ranking.
Reply: A, B, C
(A: 0.341 µM, B: 0.894 µM, C: 1.73 µM)

* * *

- System: Phosphorylation of ERK½ in MIA PaCa-2 cells
- EXPERIMENT SUMMARY: Phospho-ERK½ MSD Assay in MIA PaCa-2 cells
- Assay type: cell-based
- RUN CONDITIONS: MIA PaCa-2 cells; 4 hours compound treatment; 10 ng/mL EGF for 10 min; read-out: p-ERK IC50 (MIA PaCa-2)
pIC50: −log10 of the molar value.
MEASUREMENT NAME: pIC50

| COMPOUND | pIC50 |
| --- | --- |
| C=CC(=O)N1CCN(c2nc(=O)n(-c3ccccc3C(C)C)c3cc(-c4c(O)cccc4F)c(Cl)cc23)[C@@H](C)C1 (single isomer, unassigned) [Example 8-3-1] | 6.39 |

a = C=CC(=O)N1CCN(c2nc(=O)n(-c3ccccc3C(C)C)c3cc(-c4c(C)ccc5[nH]ncc45)c(Cl)cc23)CC1 (single isomer, unassigned) [Example 11-1-2]
b = C=CC(=O)N1CCN(c2snc3nc(-c4cc(O)cc5ccccc45)c(Cl)cc23)C(C)C1 (single isomer, unassigned) [Example 2-5-1]
Query: When their pIC50 values are compared, which is larger, a or b ? Kindly state the label of the option you pick.
Reply: a
(a: 7.80, b: 5.94)
